FYI, the data here is from paper PMC12483202.

Test: Single oral dose (5 mg/kg) pharmacokinetics of firocoxib in koalas, plasma HPLC, non-compartmental analysis;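 also: healthy adult koalas, three per sex, anaesthetised the day before dosing for cephalic vein catheterisation, with serial blood draws and firocoxib in plasma quantified by HPLC using fluorescence detection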
Settings: male, plasma, po, 5 mg/kg, Cmax, K1 male; single oral 5 mg/kg

>  <molecule.smiles>
CC1(C)OC(=O)C(OCC2CC2)=C1c1ccc(S(C)(=O)=O)cc1

>  <Cmax>
191 ng/mL

$$$$
